measurement description: Cell toxicity (MTS cell viability) in CHO-K1 cells at 24 h
Assay type: cell-based
experimental setup: Chinese hamster
metric: IC50 at 24 h (µM)
Number in µM, nothing else.

Item CC(=O)N(C)c1cccc(-c2ccnc3c(C(=O)c4cccs4)cnn23)c1 [Example 1 of US 6399621 (indiplon), reference compound] has what recorded IC50 at 24 h? 108

// below: IC50 at 24 h requested for another compound
Sample Cc1nn2c(-c3ccc(F)c(N(C)S(C)(=O)=O)c3)ccnc2c1C#N [Preparative example 11] — what was its IC50 at 24 h? 186

###

Overview of recorded % inhib 10^−5M for various molecules
Test system: α2 subunit of the GABAA receptor
measurement description: Ligand-binding assay, competitive with radiolabeled flumazenil, spinal cord membranes
experimental setup: 10^−5M compound; 1 nM radiolabeled flumazenil; rat spinal cord membranes
Note: unit % is implicit; provide only the numeric part.

Need % inhib 10^−5M, item CN(c1cc(-c2ccnc3c([N+](=O)[O-])cnn23)ccc1F)S(C)(=O)=O 94.5

###

System: α1 subunit of the GABAA receptor
measurement description: Ligand-binding assay, competitive with radiolabeled flumazenil, cerebellum membranes
experimental setup: 10^−7M compound; 1 nM radiolabeled flumazenil; rat cerebellum membranes
Each item that follows carries a reported % inhib 10^−7M.
Answer with a number only, understood to be in %.

Requested read-out: % inhib 10^−7M. Entry: COc1ccc(-c2ccnc3c(C(=O)c4cccs4)cnn23)cc1N(C)C(C)=O [Preparative example 14] 31.9

Any idea what % inhib 10^−7M was measured for Cc1nn2c(-c3ccc(F)c(N(C)S(C)(=O)=O)c3)ccnc2c1C#N [Preparative example 11] ? 41.8

Would you mind telling me what % inhib 10^−7M value was observed for CC(=O)N(C)c1cc(-c2ccnc3c(C(=O)c4cccs4)cnn23)ccc1C [Preparative example 13] ? 39.8

What value of % inhib 10^−7M has been recorded for this entry: CN(c1cc(-c2ccnc3c(C#N)cnn23)ccc1F)S(C)(=O)=O [Preparative example 6] 36.4

I am curious: what % inhib 10^−7M value has been reported for CN(c1cc(-c2ccnc3c([N+](=O)[O-])cnn23)ccc1F)S(C)(=O)=O [Preparative example 5] ? 42.3

###

Tested on: α1 subunit of the GABAA receptor
measurement description: Ligand-binding assay, competitive with radiolabeled flumazenil, cerebellum membranes
experimental setup: 10^−5M compound; 1 nM radiolabeled flumazenil; rat cerebellum membranes
Procedure: a) Ligand-Binding Assays. Determination of the Affinity of Test Compounds for α1- and α2-GABAA Receptor Male Sprague-Dawley rats weighing 200-250 g at the time of experiment were used. […] Affinity was determined by competitive tests using radiolabeled flumazenil as ligand. […] The next day the plates were counted using a Perkin-Elmer Microbeta scintillation counter. […]
metric: % inhib 10^−5M (%)
Response body: numeric value in %, unit text excluded.

Before answering, review these 4 worked examples.
Given the molecule CN(c1cc(-c2ccnc3c(C#N)cnn23)ccc1F)S(C)(=O)=O [Preparative example 6] , what is its reported % inhib 10^−5M? 98.1

Reported % inhib 10^−5M, molecule CN(c1cc(-c2ccnc3c([N+](=O)[O-])cnn23)ccc1F)S(C)(=O)=O [Preparative example 5] : ____ 98.2

Field request: % inhib 10^−5M | item: Cc1nn2c(-c3ccc(F)c(N(C)S(C)(=O)=O)c3)ccnc2c1C#N [Preparative example 11] 97.7

// lookup % inhib 10^−5M for COc1ccc(-c2ccnc3c(C(=O)c4cccs4)cnn23)cc1N(C)C(C)=O [Preparative example 14] 97.3

// switching to the query molecule
What % inhib 10^−5M value was documented for this molecule, CC(=O)N(C)c1cc(-c2ccnc3c(C(=O)c4cccs4)cnn23)ccc1C [Preparative example 13] ? 98.7
